Source: ChEMBL document CHEMBL4028808

biological target: Cyclin-C/Cyclin-dependent kinase 19 (Homo sapiens); assay: Inhibition of kinase tracer-236 binding to GST-tagged CDK19/CyclinC (unknown origin) after 60 mins by TR-FRET assay
Sequence (Q9BWU1 whole entry): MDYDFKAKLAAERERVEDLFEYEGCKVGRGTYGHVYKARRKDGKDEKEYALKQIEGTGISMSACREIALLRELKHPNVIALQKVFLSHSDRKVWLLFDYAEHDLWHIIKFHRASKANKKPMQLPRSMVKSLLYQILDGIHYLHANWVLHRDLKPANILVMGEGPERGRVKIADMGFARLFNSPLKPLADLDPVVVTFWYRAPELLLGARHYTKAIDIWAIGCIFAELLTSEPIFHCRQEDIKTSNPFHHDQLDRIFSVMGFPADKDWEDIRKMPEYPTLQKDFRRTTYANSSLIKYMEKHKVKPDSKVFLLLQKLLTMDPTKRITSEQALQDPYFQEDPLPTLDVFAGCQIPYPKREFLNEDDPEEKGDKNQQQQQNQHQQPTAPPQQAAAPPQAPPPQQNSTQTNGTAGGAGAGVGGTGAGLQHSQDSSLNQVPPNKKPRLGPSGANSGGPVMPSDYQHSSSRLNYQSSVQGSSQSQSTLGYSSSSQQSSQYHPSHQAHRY
Sequence (P24863 whole entry, further chain): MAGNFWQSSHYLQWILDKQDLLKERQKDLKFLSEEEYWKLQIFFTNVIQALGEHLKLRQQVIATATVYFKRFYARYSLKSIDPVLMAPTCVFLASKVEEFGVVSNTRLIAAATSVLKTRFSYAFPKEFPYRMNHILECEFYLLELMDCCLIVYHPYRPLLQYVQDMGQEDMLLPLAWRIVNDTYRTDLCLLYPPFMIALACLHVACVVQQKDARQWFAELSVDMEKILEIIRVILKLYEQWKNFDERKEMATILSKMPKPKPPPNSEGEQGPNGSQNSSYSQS
Quick reference: pIC50 of the listed items.
In textbook form, pIC50 equals minus log to base ten of the concentration in mol/L.

Solved entries:
{"smi": "COc1sc(C(N)=O)c2c1-c1sncc1CC2", "pIC50": 8.55}
{"smi": "CNC(=O)c1sc(SC)c2c1CCc1cnsc1-2", "pIC50": 7.66}
{"smi": "CN(C)C(=O)c1ccc(Oc2sc(C(N)=O)c3c2-c2sncc2CC3)cn1", "pIC50": 7.68}
{"smi": "COCCNC(=O)c1ccc(Oc2sc(C(N)=O)c3c2-c2sncc2CC3)cn1", "pIC50": 9.00}

Next molecule, pIC50 to be filled in.
Please give the measured pIC50 for this molecule: CSc1sc(C(=O)Nc2ccsn2)c2c1-c1sncc1CC2 7.03
